System: Entamoeba histolytica
Experiment: Antiprotozoal activity against clinical isolates of Entamoeba histolytica HM-1:IMSS
Assay type: functional, organism-based
IC50 less than 60 µg/mL is MET; IC50 greater than or equal to 60 µg/mL is NOT MET.

[
  {
    "Smiles repr": "C[C@]12C[C@H](c3ccoc3)OC(=O)[C@@]1(O)CC[C@@]13COC(=O)C1=CC[C@H]1O[C@]132",
    "Answer label": "NOT MET"
  },
  {
    "Smiles repr": "C[C@]12C[C@H](c3ccoc3)OC(=O)[C@H]1CC[C@@]13COC(=O)[C@@H]1C=C[C@@H](O)[C@H]23",
    "Answer label": "MET"
  },
  {
    "Smiles repr": "Oc1cc(O)c2c(c1)O[C@H](c1ccc(O)c(O)c1)[C@@H](O)C2",
    "Answer label": "NOT MET"
  },
  {
    "Smiles repr": "C[C@]12C[C@H](c3ccoc3)OC(=O)[C@@]1(O)CC[C@@]13COC(=O)[C@H]1CC=C[C@]32O",
    "Answer label": "NOT MET"
  },
  {
    "Smiles repr": "NCCc1ccc(O)cc1",
    "Answer label": "MET"
  },
  {
    "Smiles repr": "C[C@]12C[C@H](c3ccoc3)OC(=O)[C@H]1CC[C@@]13COC(=O)[C@H]1CC=C[C@]32O",
    "Answer label": "NOT MET"
  },
  {
    "Smiles repr": "C[C@]12C[C@H](c3ccoc3)OC(=O)[C@@]1(O)CC[C@@]13COC(=O)[C@]1(O)CC=C[C@]23O",
    "Answer label": "NOT MET"
  },
  {
    "Smiles repr": "C[C@]12C[C@H](c3ccoc3)OC(=O)[C@@]1(O)CC[C@@]13COC(=O)[C@H]1CC=C[C@H]32",
    "Answer label": "NOT MET"
  },
  {
    "Smiles repr": "C[C@]12C[C@H](c3ccoc3)OC(=O)[C@H]1CC[C@@]13COC(=O)[C@H]1C[C@@H]1O[C@@H]1[C@]32O",
    "Answer label": "MET"
  },
  {
    "Smiles repr": "C[C@]12C[C@H](c3ccoc3)OC(=O)[C@@]1(O)CC[C@@]13COC(=O)[C@@H]1C=CC[C@@H]32",
    "Answer label": "MET"
  }
]

---

# IC50 per record follows
Tested on: HCT-15
Assay: Cytotoxicity against human HCT15 cells after 48 hrs by SRB method
Assay type: functional, cell-based
Settings: HCT-15, 48 h

[
  {
    "Smiles repr": "C[C@]12C[C@H](c3ccoc3)OC(=O)[C@@]1(O)CC[C@@]13COC(=O)[C@H]1CC=C[C@H]32",
    "Target or test system": "HCT-15",
    "IC50": "> 50 µM"
  },
  {
    "Smiles repr": "C[C@]12C[C@H](c3ccoc3)OC(=O)[C@H]1CC[C@@]13COC(=O)[C@H]1C[C@@H]1O[C@@H]1[C@]32O",
    "Target or test system": "HCT-15",
    "IC50": "> 50 µM"
  },
  {
    "Smiles repr": "C[C@]12C[C@H](c3ccoc3)OC(=O)[C@@]1(O)CC[C@@]13COC(=O)[C@@H]1C=CC[C@@H]32",
    "Target or test system": "HCT-15",
    "IC50": "> 50 µM"
  },
  {
    "Smiles repr": "C[C@]12C[C@H](c3ccoc3)OC(=O)[C@H]1CC[C@@]13COC(=O)[C@H]1CC=C[C@]32O",
    "Target or test system": "HCT-15",
    "IC50": "> 50 µM"
  },
  {
    "Smiles repr": "C[C@]12C[C@H](c3ccoc3)OC(=O)[C@@]1(O)CC[C@@]13COC(=O)[C@]1(O)CC=C[C@]23O",
    "Target or test system": "HCT-15",
    "IC50": "> 50 µM"
  }
]
